meta.source: patent US20260028391A1

Consider the following binders and their measured IC50 (ng/ml), RSV A GFP neutralization readings.
Target: fusion glycoprotein (F) of RSV A GFP (Tables 41 and 42) (respiratory syncytial virus A)
Test: cell-based or functional assay

binder | IC50 (ng/ml), RSV A GFP neutralization, ng/mL
MPK104-v1.3-rIgG1m17,1-LS (antibody, V domains shown, also called MPK104-v1.3-rIgG1-LS) VH: QVQLVESGGGLVKPGGSLRLSCAASGFTIDGYGMNWVRQAPGKGLEWVSSISASSNYIYYADSMKGRFTISRDNGKNSLYLQMHSLRVEDTGVYYCARAPLEPPYFDLWGRGTLVTVSS VL: QSVLTQPPSVSGAPGQRVTISCSGGSSNIGAGYDVHWYQQVPGKGPKVLIYGNTNRPSGVPDRFSGSNFGASASLAITGLQAEDEADYFCQSYDRRLGGPVFGGGTKLTVL | 2.71
RSD5-FR-GL-rIgG1 (antibody, V domains shown, Germline-reverted version of RSD5 (framework regions), recombinant IgG1; also called RSD5-FR-GL-rlgG1) VH: QVQLVESGGGVVQPGRSLRLSCAASGFAFNNFAMHWVRQAPGKGLEWVAVVSYDGTSPYYADSVKGRFTISRDNSKNTLYLQMNSLRAEDTAVYYCARGLGSGSYSWIGYFYAMDVWGQGTTVTVSS VL: QSALTQPASVSGSPGQSITISCTGTSSDVGGYVYVSWYQQHPGKAPKLMIYDVSNRPSGVSNRFSGSKSGNTASLTISGLQAEDEADYYCISYTDRNTVVFGGGTKLTVL | 1.27
MPH12-rIgG1-LS (antibody, V domains shown) VH: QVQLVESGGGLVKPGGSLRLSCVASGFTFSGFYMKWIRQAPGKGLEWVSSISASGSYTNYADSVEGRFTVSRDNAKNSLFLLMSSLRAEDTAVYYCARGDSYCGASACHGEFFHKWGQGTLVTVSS VL: QSVLTQPPSVSGAPGQRVTISCTGSDSNIGADFDVHWYQQLPGTAPKLLIYGNINRPSGVPDRFSGSRSGTSAFLAITRLQAEDEADYYCQSYDRSLHYVFGAGTKVTVL | 6.55
MPK190-v1.3-rIgG1m17,1-LS (antibody, V domains shown, also called MPK190-v1.3-rIgG1-LS) VH: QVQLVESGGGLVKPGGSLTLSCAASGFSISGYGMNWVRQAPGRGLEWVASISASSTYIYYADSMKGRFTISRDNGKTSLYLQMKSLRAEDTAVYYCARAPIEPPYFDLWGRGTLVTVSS VL: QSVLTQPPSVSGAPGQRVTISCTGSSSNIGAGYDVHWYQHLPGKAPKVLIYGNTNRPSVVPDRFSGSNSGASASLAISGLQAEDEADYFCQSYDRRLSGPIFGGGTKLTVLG | 3.18
